Test system: Cydia pomonella
METHOD: Ovicidal activity against 24 hr old Cydia pomonella (codling moth) eggs assessed as development period at 5 mg/ml sprayed at 19 +/- 1 degC
Assay type: functional
MEASURED PROPERTY: Time (days)
State just the number; it will be interpreted in days.

Consider the following illustrative entries.
CC(=O)Nc1ccc(Oc2ccc(NC(=O)c3ccncc3)cc2)cc1
10.1
CC(=O)Nc1ccc(Oc2ccc(NC(=O)c3ccccn3)cc2)cc1
10.9
C=CCOC(=O)Nc1ccc(Oc2ccc(NC(=O)c3ccncc3)cc2)cc1
11.7
O=C(Nc1ccc(Oc2ccccc2)cc1)c1ccncc1
10
CC(=O)Nc1ccc(Oc2ccc(NC(=O)c3cnccn3)cc2)cc1
11

Looking for the measured Time of `C=CCOC(=O)Nc1ccc(Oc2ccc(NC(=O)c3cnccn3)cc2)cc1` , can you help?
9.5

====

Test system: Cydia pomonella
METHOD: Ovicidal activity against 24 hr old Cydia pomonella (codling moth) eggs assessed as development period at 5 mg/ml sprayed at 19 +/- 1 degC
Assay type: functional
Recorded Time by entry
Give the quantity in days, number only.

Solved cases below.
O=C(Nc1ccc(Oc2ccccc2)cc1)c1ccccn1
10.8
C=CCOC(=O)Nc1ccc(Oc2ccc(NC(=O)c3cccnc3)cc2)cc1
10.2
C=CCOC(=O)Nc1ccc(Oc2ccc(NC(=O)c3ccccn3)cc2)cc1
11.1
O=C(Nc1ccc(Oc2ccccc2)cc1)c1cnccn1
9.7

Query (compound): `O=C(Nc1ccc(Oc2ccccc2)cc1)c1cccnc1` ; field requested: Time
10.6

Cool, now `C=CCOC(=O)Nc1ccc(Oc2ccc(N)cc2)cc1`
11.3

Another: `CC(=O)Nc1ccc(Oc2ccc(NC(=O)c3cccnc3)cc2)cc1`
10.6
